experiment: qHTS assay for small molecule disruptors of the mitochondrial membrane potential (AID 720635); conditions: HepG2 mitochondrial membrane potential, Mito-MPS dye ratio; series mostly up to 83.2 µM; also: potency is read from the fitted curve at half-maximal effect
Results filed as inconclusive are left out. Calls of active or inactive are those of the source. Calls follow the shape of the dose curve; as a rule, active = well fitted inhibition curve with a large enough effect in the signal ratio in the repeat runs; inconclusive = weak or mixed curves, or effect the other way; inactive = flat fitted curve, though single readings scatter; the % refers to the signal ratio.
assay-readout: Potency

compound	result
CO[Si](CCCCl)(OC)OC	60.2 µM (active)
C[C@H](CCC(=O)NCC(=O)O)[C@H]1CC[C@H]2[C@@H]3[C@H](O)C[C@@H]4C[C@H](O)CC[C@]4(C)[C@H]3C[C@H](O)[C@]12C	inactive
CC(=O)/C=C/c1ccco1	inactive
O=P(O)(O)OCC(O)CO (centres undefined)	inactive
Nc1cc(C(=O)O)ccc1Cl	inactive
COc1ccc(/C=N/NC(=O)c2ccncc2)cc1OC	inactive
CCCCCCCCCCCCC	inactive
COc1cc(C=O)ccc1OC(=O)C(C)C	inactive
CCCCCCCCCOCC1CO1 (centres undefined)	inactive
CC(C)COC(=O)COc1ccc(Cl)cc1Cl	inactive
OCCCCCCCl	inactive
CCCCCCCCC(=O)OCC	inactive
CCCCCCCC/C=C\CCCCCCCC(=O)OC[C@@H](O)[C@H]1OC[C@H](O)[C@H]1O	inactive
CNC(=O)NC	inactive
